# ASSAY_SYSTEM: ATP-hydrolysis deficient substrate-trapping ClpB variant (E279Q/E678Q) (Escherichia coli, UniProt P63284 1-857, E279Q | E678Q)
# MEASUREMENT_PROTOCOL: fluorescence polarisation
The star is where a group is joined. FITC = O=C1OC2(c3ccc(O)cc3Oc3cc(O)ccc32)c2ccc(NC(=S)*)cc21
VALUE_KIND: pKd
# pKd = -log10(concentration in molar units)

State, in one line, measured pKd of {FITC}-KLFFNLR-NH2 [peptide B2T1]
6.04

State, in one line, measured pKd of {FITC}-KTLFISR-NH2 [peptide B1T]
6.48

State, in one line, measured pKd of {FITC}-AHAWQHQGKTLFISRKTYRI-NH2 [peptide B1]
7.33

State, in one line, measured pKd of {FITC}-QGQFRNLRRKQLWTFFLNKK-NH2 [peptide B2A]
7.99

State, in one line, measured pKd of {FITC}-QQFRNRRKLTFLKKLGWFNQ-NH2 [peptide B2B]
7.94

State, in one line, measured pKd of FHAWQHQGKTLAISRKTYRI (FITC on the N-terminus; C-terminal amide) [peptide B1N]
8.14

State, in one line, measured pKd of {FITC}-QLWQGQFRNLRRKTFFKKLN-NH2 [peptide B2N]
7.76
